Reported normalised response is given for each of the following molecules.
test system: CAL-120; experiment: normalised response (% of control), CellTiter-Glo; higher = more viable cells (100 = DMSO, 0 = benzethonium chloride kill control); details: incubation time: 72 h
readout.kind: normalised response (%)

>  <molecule>
COc1cc2c(NC3CCN(C(C)C)CC3)nc(C3CCCCC3)nc2cc1OCCCN1CCCC1 [UNC0638] (10 nM)

>  <readout.kind>
normalised response

>  <unit.annotation>
%

>  <quantitative.result>
98

$$$$
>  <molecule>
CC(=O)Nc1cccc(-n2c(=O)n(C3CC3)c(=O)c3c(Nc4ccc(I)cc4F)n(C)c(=O)c(C)c32)c1 [Trametinib] (0.25 nM)

>  <readout.kind>
normalised response

>  <unit.annotation>
%

>  <quantitative.result>
102

$$$$
>  <molecule>
CCCCC(=O)OCC(=O)[C@]1(O)Cc2c(O)c3c(c(O)c2[C@@H](O[C@H]2C[C@H](NC(=O)C(F)(F)F)[C@H](O)[C@H](C)O2)C1)C(=O)c1c(OC)cccc1C3=O [Valrubicin] (5 nM)

>  <readout.kind>
normalised response

>  <unit.annotation>
%

>  <quantitative.result>
94.6

$$$$
>  <molecule>
CNC(=O)c1cc(Oc2ccc(NC(=O)Nc3cc(C(C)(C)C)nn3-c3ccc4ncccc4c3)c(F)c2)ccn1 [Rebastinib] (1 nM)

>  <readout.kind>
normalised response

>  <unit.annotation>
%

>  <quantitative.result>
99.1

$$$$
>  <molecule>
C=CCc1cccc(/C=N/NC(=O)CN2CCN(Cc3ccccc3)CC2)c1O [PAC-1] (1 nM)

>  <readout.kind>
normalised response

>  <unit.annotation>
%

>  <quantitative.result>
96.8

$$$$
>  <molecule>
C[C@H]1C[C@@H]2[C@H]([C@@H](O)C[C@@]3(C)[C@H]2CC[C@]3(O)C(=O)CO)[C@@]2(C)C=CC(=O)C=C12 [Methylprednisolone] (1000 nM)

>  <readout.kind>
normalised response

>  <unit.annotation>
%

>  <quantitative.result>
80.5

$$$$
>  <molecule>
CC(=O)Nc1cccc(-n2c(=O)n(C3CC3)c(=O)c3c(Nc4ccc(I)cc4F)n(C)c(=O)c(C)c32)c1 [Trametinib] (25 nM)

>  <readout.kind>
normalised response

>  <unit.annotation>
%

>  <quantitative.result>
71.7

$$$$
>  <molecule>
C[C@H]1C[C@@H]2[C@H]([C@@H](O)C[C@@]3(C)[C@H]2CC[C@]3(O)C(=O)CO)[C@@]2(C)C=CC(=O)C=C12 [Methylprednisolone] (10 nM)

>  <readout.kind>
normalised response

>  <unit.annotation>
%

>  <quantitative.result>
96.2

$$$$
>  <molecule>
Nc1ccccc1NC(=O)c1ccc(CNC(=O)OCc2cccnc2)cc1 [Entinostat] (10 nM)

>  <readout.kind>
normalised response

>  <unit.annotation>
%

>  <quantitative.result>
94.2

$$$$
>  <molecule>
COc1cc2c(NC3CCN(C(C)C)CC3)nc(C3CCCCC3)nc2cc1OCCCN1CCCC1 [UNC0638] (1000 nM)

>  <readout.kind>
normalised response

>  <unit.annotation>
%

>  <quantitative.result>
92.8

$$$$
>  <molecule>
Nc1ccccc1NC(=O)c1ccc(CNC(=O)OCc2cccnc2)cc1 [Entinostat] (1000 nM)

>  <readout.kind>
normalised response

>  <unit.annotation>
%

>  <quantitative.result>
97

$$$$
>  <molecule>
COc1cc2c(NC3CCN(C(C)C)CC3)nc(C3CCCCC3)nc2cc1OCCCN1CCCC1 [UNC0638] (1 nM)

>  <readout.kind>
normalised response

>  <unit.annotation>
%

>  <quantitative.result>
104

$$$$
>  <molecule>
Nc1nc2[nH]cc(CCc3ccc(C(=O)N[C@@H](CCC(=O)O)C(=O)O)cc3)c2c(=O)[nH]1 [Pemetrexed] (1000 nM)

>  <readout.kind>
normalised response

>  <unit.annotation>
%

>  <quantitative.result>
88.1

$$$$
>  <molecule>
O=C(O)C1(C(=O)O)CCC1.[NH2-].[NH2-].[Pt+2] [Carboplatin] (1000 nM)

>  <readout.kind>
normalised response

>  <unit.annotation>
%

>  <quantitative.result>
95.3

$$$$
>  <molecule>
O=C(/C=C/c1cccnc1)NCCCCC1CCN(C(=O)c2ccccc2)CC1 [Daporinad] (100 nM)

>  <readout.kind>
normalised response

>  <unit.annotation>
%

>  <quantitative.result>
17

$$$$
>  <molecule>
CCCS(=O)(=O)Nc1ccc(F)c(C(=O)c2c[nH]c3ncc(-c4ccc(Cl)cc4)cc23)c1F [Vemurafenib] (1 nM)

>  <readout.kind>
normalised response

>  <unit.annotation>
%

>  <quantitative.result>
92.4

$$$$
>  <molecule>
C=CC(=O)N1CCC[C@@H](n2nc(-c3ccc(Oc4ccccc4)cc3)c3c(N)ncnc32)C1 [Ibrutinib] (0.1 nM)

>  <readout.kind>
normalised response

>  <unit.annotation>
%

>  <quantitative.result>
97.1

$$$$
>  <molecule>
Oc1ncc(N(CCCl)CCCl)c(O)n1 [Uracil mustard] (1 nM)

>  <readout.kind>
normalised response

>  <unit.annotation>
%

>  <quantitative.result>
98.6

$$$$
>  <molecule>
N#Cc1ccc(C(c2ccc(C#N)cc2)n2cncn2)cc1 [Letrozole] (1000 nM)

>  <readout.kind>
normalised response

>  <unit.annotation>
%

>  <quantitative.result>
99

$$$$
>  <molecule>
CC[C@H](Nc1ncnc2[nH]cnc12)c1nc2cccc(F)c2c(=O)n1-c1ccccc1 [GS-1101] (10 nM)

>  <readout.kind>
normalised response

>  <unit.annotation>
%

>  <quantitative.result>
93.2

$$$$
>  <molecule>
Nc1ncn([C@H]2C[C@H](O)[C@@H](CO)O2)c(=O)n1 [Decitabine] (1 nM)

>  <readout.kind>
normalised response

>  <unit.annotation>
%

>  <quantitative.result>
97

$$$$
>  <molecule>
C=CC(=O)Nc1cc2c(Nc3ccc(F)c(Cl)c3)ncnc2cc1OCCCN1CCOCC1 [Canertinib] (10 nM)

>  <readout.kind>
normalised response

>  <unit.annotation>
%

>  <quantitative.result>
91.7

$$$$
>  <molecule>
O=C(O)CCCCC(CCSCc1ccccc1)SCc1ccccc1 (stereo not given) [CPI-613] (10 nM)

>  <readout.kind>
normalised response

>  <unit.annotation>
%

>  <quantitative.result>
98.7

$$$$
>  <molecule>
CCN(CC)CCCC(C)Nc1c2ccc(Cl)cc2nc2ccc(OC)cc12 (stereo not given) [Mepacrine] (50 nM)

>  <readout.kind>
normalised response

>  <unit.annotation>
%

>  <quantitative.result>
98.6

$$$$
>  <molecule>
CC[C@H](C)C(=O)O[C@H]1C[C@H](O)C=C2C=C[C@H](C)[C@H](CC[C@@H](O)C[C@@H](O)CC(=O)O)[C@H]21 [Pravastatin] (10 nM)

>  <readout.kind>
normalised response

>  <unit.annotation>
%

>  <quantitative.result>
105

$$$$
>  <molecule>
COc1cc2c(Oc3ccc4[nH]c(C)cc4c3F)ncnc2cc1OCCCN1CCCC1 [Cediranib] (0.1 nM)

>  <readout.kind>
normalised response

>  <unit.annotation>
%

>  <quantitative.result>
101

$$$$
>  <molecule>
C=CC(=O)Nc1cc2c(Nc3ccc(F)c(Cl)c3)ncnc2cc1OCCCN1CCOCC1 [Canertinib] (1 nM)

>  <readout.kind>
normalised response

>  <unit.annotation>
%

>  <quantitative.result>
95.2

$$$$
>  <molecule>
C=CC(=O)N1CCC[C@@H](n2nc(-c3ccc(Oc4ccccc4)cc3)c3c(N)ncnc32)C1 [Ibrutinib] (1 nM)

>  <readout.kind>
normalised response

>  <unit.annotation>
%

>  <quantitative.result>
97.7

$$$$
>  <molecule>
Cc1cnc(NC(=O)Nc2cc(Br)c(C)cc2OC[C@@H]2CNCCO2)cn1 [Rabusertib] (1 nM)

>  <readout.kind>
normalised response

>  <unit.annotation>
%

>  <quantitative.result>
98.1

$$$$
>  <molecule>
O=C(Cc1ccc(-c2ccc(OCCN3CCOCC3)cc2)cn1)NCc1ccccc1 [KX2-391] (1000 nM)

>  <readout.kind>
normalised response

>  <unit.annotation>
%

>  <quantitative.result>
59.4

$$$$

All values here come from the supplement of paper PMC4862054.
